measurement_conditions: in ethyl acetate, 308.15 K
measured_attribute: solubility (mole fraction)

GET /values?readout=solubility (mole fraction)&item= CCCCOc1ccc(C(=O)CCN2CCCCC2)cc1.Cl
0.0223

---

measurement_conditions: in DMF, 283.15 K
measured_attribute: solubility (mole fraction)
Format: numeric value only, no unit, no commentary.

Which value of solubility (mole fraction) has been reported for CCCCOc1ccc(C(=O)CCN2CCCCC2)cc1.Cl in the records?
0.0227

---

measurement_conditions: in methanol, 313.15 K
measured_attribute: solubility (mole fraction)
Would you mind answering with just the numeric figure?

Which solubility (mole fraction) value belongs to CCCCOc1ccc(C(=O)CCN2CCCCC2)cc1.Cl ?
0.188
